biological target: Integrin alpha-4/beta-1 (Homo sapiens, UniProt P05556+P13612); assay: Inhibition of binding of Very late antigen 4/vascular cell adhesion molecule 1 in a cell based ligand binding assay (Jurkat cells)
Sequence (P05556 whole entry): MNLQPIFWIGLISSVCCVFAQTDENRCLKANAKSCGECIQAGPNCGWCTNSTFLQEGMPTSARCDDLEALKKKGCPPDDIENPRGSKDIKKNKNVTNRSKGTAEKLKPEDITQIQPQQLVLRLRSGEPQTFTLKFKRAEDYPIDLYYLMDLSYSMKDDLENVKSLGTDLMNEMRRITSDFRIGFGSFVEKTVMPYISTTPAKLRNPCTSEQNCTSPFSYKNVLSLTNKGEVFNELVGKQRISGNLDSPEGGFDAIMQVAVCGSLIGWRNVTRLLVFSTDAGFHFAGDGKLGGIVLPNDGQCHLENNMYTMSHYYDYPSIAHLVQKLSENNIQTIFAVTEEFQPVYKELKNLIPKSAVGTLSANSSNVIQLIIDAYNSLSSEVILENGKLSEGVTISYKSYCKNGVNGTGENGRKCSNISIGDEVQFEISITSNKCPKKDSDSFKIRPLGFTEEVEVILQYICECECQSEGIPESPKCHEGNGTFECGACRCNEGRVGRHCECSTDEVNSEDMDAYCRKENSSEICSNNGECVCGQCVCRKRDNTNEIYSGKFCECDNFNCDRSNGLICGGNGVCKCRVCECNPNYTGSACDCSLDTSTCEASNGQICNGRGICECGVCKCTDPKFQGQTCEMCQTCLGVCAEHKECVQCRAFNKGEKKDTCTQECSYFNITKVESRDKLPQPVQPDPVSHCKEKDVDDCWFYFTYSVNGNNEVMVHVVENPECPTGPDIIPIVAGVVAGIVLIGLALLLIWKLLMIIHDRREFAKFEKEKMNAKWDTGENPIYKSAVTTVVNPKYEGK
Sequence (P13612 whole entry): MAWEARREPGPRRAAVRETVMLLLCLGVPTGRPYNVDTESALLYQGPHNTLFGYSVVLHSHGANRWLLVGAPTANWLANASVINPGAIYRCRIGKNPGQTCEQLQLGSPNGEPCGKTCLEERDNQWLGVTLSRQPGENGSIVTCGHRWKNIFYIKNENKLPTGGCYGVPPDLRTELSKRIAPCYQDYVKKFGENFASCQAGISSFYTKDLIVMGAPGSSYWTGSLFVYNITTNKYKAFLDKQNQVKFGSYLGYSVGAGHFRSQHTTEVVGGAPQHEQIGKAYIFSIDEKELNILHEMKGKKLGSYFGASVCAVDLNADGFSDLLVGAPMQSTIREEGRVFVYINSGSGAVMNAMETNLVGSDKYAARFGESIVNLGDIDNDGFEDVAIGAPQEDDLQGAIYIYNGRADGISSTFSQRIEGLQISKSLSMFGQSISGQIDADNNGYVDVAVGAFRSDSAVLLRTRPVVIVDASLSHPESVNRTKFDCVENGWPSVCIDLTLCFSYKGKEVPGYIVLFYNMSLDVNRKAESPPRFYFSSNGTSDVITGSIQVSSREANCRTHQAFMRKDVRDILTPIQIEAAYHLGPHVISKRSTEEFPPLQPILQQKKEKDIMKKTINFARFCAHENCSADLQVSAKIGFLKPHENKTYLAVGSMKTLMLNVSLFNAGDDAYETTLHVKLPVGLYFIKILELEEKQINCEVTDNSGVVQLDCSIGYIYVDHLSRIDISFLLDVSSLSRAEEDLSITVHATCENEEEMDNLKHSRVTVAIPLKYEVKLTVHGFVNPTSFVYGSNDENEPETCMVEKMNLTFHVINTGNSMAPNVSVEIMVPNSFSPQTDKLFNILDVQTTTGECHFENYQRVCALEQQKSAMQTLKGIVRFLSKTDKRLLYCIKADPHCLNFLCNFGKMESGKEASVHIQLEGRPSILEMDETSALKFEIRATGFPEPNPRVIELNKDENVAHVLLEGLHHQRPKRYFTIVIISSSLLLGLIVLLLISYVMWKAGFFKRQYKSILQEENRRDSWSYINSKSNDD
pIC50: −log10 of the molar value.
Is pIC50 at least 7? Then True. If not, False.

[
  {
    "molecule": "O=C(Nc1ccc(C[C@H](/N=c2/c(N3CCCCC3)c(O)c2=O)C(=O)O)cc1)c1c(Cl)cncc1Cl",
    "qualitative label": "True"
  },
  {
    "molecule": "O=C(Nc1ccc(C[C@H](/N=c2/c(N3CCSCC3)c(O)c2=O)C(=O)O)cc1)c1c(Cl)cncc1Cl",
    "qualitative label": "True"
  },
  {
    "molecule": "O=C(Nc1ccc(C[C@H](/N=c2\\c(O)c(O)\\c2=N/c2ccccc2)C(=O)O)cc1)c1c(Cl)cncc1Cl",
    "qualitative label": "False"
  },
  {
    "molecule": "CCCCN(CCCC)c1c(N[C@@H](Cc2ccc(NC(=O)c3c(Cl)cncc3Cl)cc2)C(=O)O)c(=O)c1=O",
    "qualitative label": "True"
  },
  {
    "molecule": "O=C(Nc1ccc(C[C@H](/N=c2\\c(O)c(O)\\c2=N/C2CC2)C(=O)O)cc1)c1c(Cl)cncc1Cl",
    "qualitative label": "False"
  },
  {
    "molecule": "CCC/N=c1\\c(O)c(O)\\c1=N/[C@@H](Cc1ccc(-c2c(OC)cccc2OC)cc1)C(=O)O",
    "qualitative label": "False"
  },
  {
    "molecule": "CCC/N=c1\\c(O)c(O)\\c1=N/[C@@H](Cc1ccc(Oc2ncccn2)cc1)C(=O)O",
    "qualitative label": "False"
  },
  {
    "molecule": "CCCC(C)/N=c1\\c(O)c(O)\\c1=N/[C@@H](Cc1ccc(NC(=O)c2c(Cl)cncc2Cl)cc1)C(=O)O (stereo partly specified)",
    "qualitative label": "True"
  },
  {
    "molecule": "CC(C)(C)/N=c1\\c(O)c(O)\\c1=N/[C@@H](Cc1ccc(NC(=O)c2c(Cl)cncc2Cl)cc1)C(=O)O",
    "qualitative label": "False"
  },
  {
    "molecule": "CCCN(C)c1c(N[C@@H](Cc2ccc(NC(=O)c3c(Cl)cncc3Cl)cc2)C(=O)O)c(=O)c1=O",
    "qualitative label": "True"
  },
  {
    "molecule": "CCN(CC)c1c(N[C@@H](Cc2ccc(NC(=O)c3c(Cl)cncc3Cl)cc2)C(=O)O)c(=O)c1=O",
    "qualitative label": "True"
  }
]
